readout type: melting point

Input: Quote melting point reported for Cc1nc2ccc(-c3cc(=O)n4cc(N5CCN[C@@H](C)C5)ccc4n3)cc2s1 please.
Output: 214 to 216 °C

Input: Quote melting point reported for CCc1nc(C)cn2nc(-c3cc(=O)n4cc(N5CCN(C)[C@H](C)C5)cc(C)c4n3)cc12 please.
Output: 234 to 240 °C

Input: Quote melting point reported for Cc1cn2nc(-c3cc(=O)n4cc(C5=CC(C)(C)NC(C)(C)C5)ccc4n3)cc2c(C)n1 please.
Output: 218 to 221 °C

---

- Test system: SMN2 minigene mRNA (SMN2-A minigene) in HEK293H cells
- protocol: SMN2 minigene mRNA splicing RT-qPCR assay in cultured cells
- Assay type: cell-based, human
- experimental setup: Homo sapiens, HEK293-H; concentration increasing full length SMN2 mRNA 1.5-fold relative to vehicle-treated cells; HEK293H cells with SMN2-A minigene, 24 hours, 7-point concentration data; read-out: EC1.5x for production of full length SMN2 mRNA
Recorded measurements of EC (1.5-fold increase), one per entry

Study these solved cases before continuing.
CCCN1CC=C(c2cc(C)c3nc(-c4ccc(OC)c(OC)c4)cc(=O)n3c2)CC1    < 0.1 µM
Cc1cn2cc(-c3cc(=O)n4cc(N5CCN(C)CC5)ccc4n3)ccc2n1    1 to 3 µM
CCCN(C)C1CC=C(c2ccc3nc(-c4ccc(OC)c(OC)c4)cc(=O)n3c2)CC1 (centres unmarked)    < 0.1 µM
Cc1cn2nc(-c3cc(=O)n4nc(C5CCN(C)CC5)ccc4n3)cc2c(C)n1    0.1 to 0.3 µM
Cn1cc2cc(-c3cc(=O)n4cc(C5=CCNCC5)ccc4n3)ccc2n1    < 0.1 µM

Input: Quote EC (1.5-fold increase) reported for Cc1cn2cc(-c3ccc4nc(N5CCNCC5)cc(=O)n4c3)cc(F)c2n1 please.
Output: < 0.1 µM

Input: Quote EC (1.5-fold increase) reported for COc1cc(F)c(-c2cc(=O)n3cc(N4CCNCC4)ccc3n2)cc1OC please.
Output: 3 to 30 µM

Input: Quote EC (1.5-fold increase) reported for Cc1nc2ccc(-c3cc(=O)n4cc(N5C[C@H]6CNC[C@H]6C5)ccc4n3)cc2o1 please.
Output: < 0.1 µM

---

Recorded measurements of melting point, one per entry

Study these solved cases before continuing.
Cc1nc2ccc(-c3cc(=O)n4cc(N5CCNCC5)ccc4n3)cn2c1C    236 to 240 °C
Cc1cn2cc(-c3cc(=O)n4cc(N5CCN(C6CC6)CC5)ccc4n3)cc(F)c2n1    254 to 258 °C
COc1ccc(-c2cc(=O)n3cc(N4C[C@@H](C)N[C@@H](C)C4)ccc3n2)cc1    185 to 187 °C

Please find the next molecule below.
Input: Quote melting point reported for COc1ccc(-c2cc(=O)n3cc(N4CC[C@H](NC(C)C)C4)ccc3n2)cc1OC please.
Output: 169 to 172 °C

---

- Tested on: SMN2 minigene mRNA (SMN2-A minigene) in HEK293H cells
- protocol: SMN2 minigene mRNA splicing RT-qPCR assay in cultured cells
- Type: cell-based, human
- experimental setup: Homo sapiens, HEK293-H; concentration increasing full length SMN2 mRNA 1.5-fold relative to vehicle-treated cells; HEK293H cells with SMN2-A minigene, 24 hours, 7-point concentration data; read-out: EC1.5x for production of full length SMN2 mRNA
readout type: EC (1.5-fold increase)

Study these solved cases before continuing.
CC[C@H]1CN(c2cc(C)c3nc(-c4cc5c(C)nc(C)cn5n4)cc(=O)n3c2)CCN1 [Compound 732]    0.3 to 1 µM
CN1CCC(c2ccc3nc(-c4ccc5nn(C)cc5c4)cc(=O)n3c2)CC1 [Compound 578]    < 0.1 µM
Cn1cc2cc(-c3cc(=O)n4cc(C5CCN(CCO)CC5)ncc4n3)ccc2n1 [Compound 569]    < 0.1 µM

Please find the next molecule below.
Input: Report measured EC (1.5-fold increase) on SMN2 minigene mRNA (SMN2-A minigene) in HEK293H cells; entry: COc1ccc(-c2cc(=O)n3cc(C4=CCN(C)CC4)cc(C)c3n2)cc1OC [Compound 251]
Output: < 0.1 µM

---

readout type: melting point

Cc1cn2nc(-c3cc(=O)n4cc(N5C[C@@H](C)N[C@@H](C)C5)cc(C)c4n3)cc2c(C)n1    273 to 283 °C
C[C@H]1CN(c2ccc3nc(-c4ccc5c(c4)OCCO5)cc(=O)n3c2)CCN1    205 to 207 °C
Cc1cn2nc(-c3cc(=O)n4cc(N5CCN(CCO)CC5)ccc4n3)cc2c(C)n1    246 to 248 °C
CCN1CCN(c2ccc3nc(-c4ccc(OC)c(OC)c4)cc(=O)n3c2)CC1    159 to 162 °C
CCN1CCN(c2ccc3nc(-c4cccc(OC)c4)cc(=O)n3c2)CC1    158 to 160 °C

Input: Quote melting point reported for CCN1CCC(c2ccc3nc(-c4ccc5nn(C)cc5c4)cc(=O)n3n2)CC1 please.
Output: 253 to 255 °C

Input: Quote melting point reported for COc1ccc(-c2cc(=O)n3cc(C4=CCN(C(C)C)CC4)ccc3n2)cc1OC please.
Output: 116 to 118 °C

Input: Quote melting point reported for COc1ccc(-c2cc(=O)n3cc(N4CCC(CN5CCCCC5)CC4)ccc3n2)cc1OC please.
Output: 184 to 186 °C

---

readout type: melting point

Study these solved cases before continuing.
Cc1cn2cc(-c3cc(=O)n4cc(N5CCN(C(C)C)[C@@H](C)C5)ccc4n3)cc(F)c2n1    191 to 194 °C
Cc1cc(-c2cc(=O)n3cc(N4CCN[C@@H](C)C4)ccc3n2)cc2cn(C)nc12    308 to 310 °C
COc1ccc(-c2cc(=O)n3cc(N4CCN(C)CC4)cc(F)c3n2)cc1OC    183 to 185 °C
O=c1cc(-c2cccc(Cl)c2)nc2ccc(N3CCNCC3)cn12    185 to 189 °C
Cc1cn2nc(-c3cc(=O)n4cc(N5CCC(N6CCOCC6)CC5)ccc4n3)cc2c(C)n1    192 to 195 °C

Input: Quote melting point reported for CCCN1CCC(c2ccc3nc(-c4cc5c(CC)nc(C)cn5n4)cc(=O)n3c2)CC1 please.
Output: 203 to 204 °C

Input: Quote melting point reported for Cc1nc2ccc(-c3cc(=O)n4cc(N5CCN(C)CC5)ccc4n3)cc2[nH]1 please.
Output: 292 to 294 °C

Input: Quote melting point reported for Cc1cn2nc(-c3cc(=O)n4cc(N5CCC(CN6CCCCC6)CC5)ccc4n3)cc2c(C)n1 please.
Output: 192 to 195 °C

---

readout type: melting point

Study these solved cases before continuing.
Cc1nc2ccc(-c3cc(=O)n4cc(N5C[C@H]6CN(C)C[C@H]6C5)ccc4n3)cc2o1 [Compound 267]    200 to 204 °C
Cc1cn2nc(-c3cc(=O)n4cc(OC5CCN(C)CC5)ccc4n3)cc2c(C)n1 [Compound 722]    249 to 252 °C
O=c1cc(-c2ccc(O)c(F)c2)nc2ccc(N3CCNCC3)cn12 [Compound 152]    259 to 266 °C
COc1ccc(-c2cc(=O)n3cc(N4CCNCC4)ccc3c2)cc1F [Compound 103]    200 to 202 °C
Cc1cn2nc(-c3cc(=O)n4cc(N5C[C@H]6CNC[C@H]6C5)ccc4n3)cc2c(C)n1 [Compound 746]    239 to 242 °C
Cn1ncc2cc(-c3cc(=O)n4cc(C5CCN(CCO)CC5)ccc4n3)ccc21 [Compound 605]    204 to 206 °C

Input: Quote melting point reported for Cc1cn2ccc(-c3cc(=O)n4cc(C5CCNCC5)ccc4n3)cc2n1 [Compound 556] please.
Output: 257 to 260 °C

Input: Quote melting point reported for Cc1cc(C2CCN(C3CC3)CC2)cn2c(=O)cc(-c3ccc4nn(C)cc4c3)nc12 [Compound 718] please.
Output: 226 to 231 °C

---

readout type: melting point

Study these solved cases before continuing.
Cn1cc2cc(-c3cc(=O)n4cc(C5CCNCC5)ncc4n3)ccc2n1 [Compound 566]    235 to 237 °C
CCCN1CCN(c2ccc3nc(-c4cc5c(CC)nc(C)cn5n4)cc(=O)n3c2)CC1 [Compound 618]    243 to 245 °C
O=c1cc(-c2cccc(OC(F)(F)F)c2)nc2ccc(N3CCNCC3)cn12 [Compound 80]    140 to 143 °C

Input: Quote melting point reported for CCN1CCC(c2ccc3nc(-c4cc5c(C)nc(C)cn5n4)cc(=O)n3n2)CC1 [Compound 514] please.
Output: 283 to 285 °C

Input: Quote melting point reported for CCc1nc(C)cn2nc(-c3cc(=O)n4cc(C5CCN(CCO)CC5)ccc4n3)cc12 [Compound 659] please.
Output: 207 to 209 °C

Input: Quote melting point reported for COc1cc(F)c(-c2cc(=O)n3cc(N4CCNCC4)ccc3n2)cc1OC [Compound 64] please.
Output: 177 to 180 °C

Input: Quote melting point reported for CCc1nc(C)cn2nc(-c3cc(=O)n4cc(C5=CCNCC5)ccc4n3)cc12 [Compound 763] please.
Output: 287 to 289 °C
